# Test system: Fer (mouse)
# protocol_details: phosphorylation enrichment, bacterial display (enrichment ratio); higher = better substrate or ligand; peptides without Tyr show the background
readout: phosphorylation enrichment

Reference set, count: 6
WDLTDYLMKIL [ACTB_Y188_R183W]    0.529
RTVPLYESLRK [DDB1_Y718_P721L]    11.3
GDAMLYYPSVS [GPR143_Y177_A173D]    1.27
FARECYSALPQ [SARS2_Y52_G51C_YF]    0.982
KVALLYKPYFY [POLE_Y100_P99L]    0.474
ILGRTHYVNHE [NEDD4_Y627_Y627H]    0.376

Look up phosphorylation enrichment for this sequence: DCPASYKKKSM [PDGFRA_Y768_R764C]
0.384

---

Listing: phosphorylation enrichment of selected sequences
# Test system: c-Src
# protocol_details: phosphorylation enrichment, bacterial display (enrichment ratio); higher = better substrate or ligand; peptides without Tyr show the background
When you answer, write just the number.

Reference set, count: 6
VQEDIYDEFVV [ALDH2_Y332_E337V]    3.57
TVLGEYALPKG [CYP24A1_Y407]    0.39
RFQKLYLDRNL [IGFALS_Y248_L244F]    0.332
GRRNTYYASIA [ACADM_Y352]    0.638
ACCLLYRGDVV [TUBA4A_Y319]    5.88
LTTPTYGDLNH [TUBB_Y222]    3.12

Would you kindly look at the next entry?
API: value(readout= phosphorylation enrichment, system= c-Src, query= IFGASYVPFAA [RBM47_Y541_YF] )
1

---

# System: Fer (mouse)
# protocol_details: phosphorylation enrichment, bacterial display (enrichment ratio); higher = better substrate or ligand; peptides without Tyr show the background
Listing: phosphorylation enrichment of selected sequences
When you answer, write just the number.

Reference set, count: 5
VFSSDYFSFVL [USP24_Y2138_YF]    0.681
DHLASYLDKVR [KRT10_Y160_R156H]    0.363
YKEQGYHRLPP [RIN1_Y681]    0.365
GARGRYVMGGP [TNK1_Y277]    0.405
EIEFLYNENTV [IARS1_Y680]    0.632

Look up phosphorylation enrichment for this sequence: WIPNQYPIISE [NOG_Y222_I220N]
0.541

Follow-up entry: GEIQEYGAPSD [ABCC1_Y1508]
0.481

---

Listing: phosphorylation enrichment of selected sequences
# System: AncSZ
# protocol_details: phosphorylation enrichment, bacterial display (enrichment ratio); higher = better substrate or ligand; peptides without Tyr show the background
When you answer, write just the number.

VFAANYFKLLG [ROR2_Y645_D644N_YF]    0.872
WTAHSYRMGSA [ARHGEF7_Y785_T790A]    0.683
MHLRQYKLLGG [GNAS_Y391_E392K]    0.51
RVGNMYMRGLS [ABCG8_Y209_V210M]    0.672
GSQERDFELVE [TSC2_Y407_Y407D]    1.08
SLLPDYEDEEE [ZNF830_Y159]    1.47
DRLASYRDKVR [KRT12_Y139_L140R]    0.466
GVASDYKCIDP [VPS13B_Y1991]    1.08

Look up phosphorylation enrichment for this sequence: RESVSYLFSHV [PRPS1_Y311_G306R]
1

Follow-up entry: GPRKAYELSQR [SETX_Y1297]
0.464

Follow-up entry: RICRRYCQVLN [IQCF1_Y144_R141C]
1.03

Follow-up entry: FRVDCYKNFVA [FHL1_Y213_C209R_YF]
1.23

Follow-up entry: VEDQYYRVDCY [FHL1_Y208_C209R]
2.93

---

# System: c-Src
# protocol_details: phosphorylation enrichment, bacterial display (enrichment ratio); higher = better substrate or ligand; peptides without Tyr show the background
Listing: phosphorylation enrichment of selected sequences
When you answer, write just the number.

TPRNTYKMTSV [MKI67_Y849_L854V]    0.502
MTFMFYRENLR [NLRP14_Y443_V441M_YF]    0.445
KLADIYQAELR [GFAP_Y116_V115I]    1.62
AALSAYAPQRP [PTPRN2_Y249_A251P]    0.521
NKKFHYRELPV [ERN2_Y860_H858Y_YF]    0.266
ILGRFYETGSI [PAX2_Y73_YF]    0.414
RLGVTYEQALA [MAP2_Y996_G991R]    1.05
SLALFYRKVFH [RBL1_Y792_YF]    0.409
YSIAQYCCRMG [LRRK2_Y2023_G2019S]    0.79
RPGSGYTKIMR [PKLR_Y564_N566K]    0.348

Look up phosphorylation enrichment for this sequence: EERNTYVNTTL [TEK_Y1102_K1100N]
0.43

Follow-up entry: ARAGEYGAEAL [HBA1_Y25_H21R]
0.396

---

Listing: SH2 binding enrichment of selected sequences
# target_or_system: Grb2 SH2 (UniProt P62993)
# Sequence (P62993 whole entry, looked up): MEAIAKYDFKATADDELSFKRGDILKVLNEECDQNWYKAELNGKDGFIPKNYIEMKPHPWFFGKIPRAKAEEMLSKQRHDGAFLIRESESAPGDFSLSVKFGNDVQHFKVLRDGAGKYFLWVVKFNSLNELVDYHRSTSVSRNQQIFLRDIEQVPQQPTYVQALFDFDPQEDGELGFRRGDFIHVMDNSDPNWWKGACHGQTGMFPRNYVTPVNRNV
# protocol_details: SH2 binding enrichment of the phosphorylated peptide, bacterial display (enrichment ratio); higher = better substrate or ligand; peptides without Tyr show the background
When you answer, write just the number.

Look up SH2 binding enrichment for this sequence: HSGVSYFINLC [IGF2R_Y2024_N2020S_YF]
0.651

Follow-up entry: PEFINYHQHNS [BTK_Y361_L358F]
0.659

Follow-up entry: GRVFVYHLSEQ [ITGAE_Y551_R552H_YF]
0.769

Follow-up entry: ALRASYTPSPV [ESS2_Y418_A423V]
0.67

Follow-up entry: CTTIHYNDMCN [TP53_Y234_Y236D]
0.756

Follow-up entry: FSQQTYYRVSN [ABCD1_Y180]
0.86

Follow-up entry: ACQGKYTPSGQ [ALDOA_Y343]
0.843

Follow-up entry: SLALFYRKVYH [RBL1_Y792]
0.689

Follow-up entry: MSLPGYKLVTG [GJA1_Y286_P283L]
0.766

Follow-up entry: YRIGPYQPSVP [MATR3_Y784_N787S]
0.829

Follow-up entry: CTTLHYNYMCN [TP53_Y234_I232L]
1.21

Follow-up entry: STEPQYQPGEN [SRC_Y530]
0.814

Follow-up entry: NLNGKCNKPRA [ANGPTL3_Y417_Y417C]
1.23

Follow-up entry: LSVISYDLGMF [GBA3_Y174_M172I]
1.12

---

# System: c-Src
# protocol_details: phosphorylation enrichment, bacterial display (enrichment ratio); higher = better substrate or ligand; peptides without Tyr show the background
Each entry falls in a class defined on phosphorylation enrichment; the bands are band 1: < 0.5; band 2: ≥ 0.5 and < 0.9; band 3: ≥ 0.9

Solved cases below.
LRLSSYSTTIR [CYP7B1_Y365]    band 2
EVESPYEVHDY [GIGYF2_Y1168]    band 3
VMAALYGRLFE [BTD_Y536_T532M_YF]    band 3
SLALFYRKVYH [RBL1_Y792]    band 1
ATHSRYRLNDY [CLDN14_Y233_G232R]    band 1

Sort into band: IGEGTYGVLFK [CDK2_Y15_V18L_YF]
band 3

---

# target_or_system: Fes (UniProt P07332)
# Sequence (P07332 whole entry, looked up): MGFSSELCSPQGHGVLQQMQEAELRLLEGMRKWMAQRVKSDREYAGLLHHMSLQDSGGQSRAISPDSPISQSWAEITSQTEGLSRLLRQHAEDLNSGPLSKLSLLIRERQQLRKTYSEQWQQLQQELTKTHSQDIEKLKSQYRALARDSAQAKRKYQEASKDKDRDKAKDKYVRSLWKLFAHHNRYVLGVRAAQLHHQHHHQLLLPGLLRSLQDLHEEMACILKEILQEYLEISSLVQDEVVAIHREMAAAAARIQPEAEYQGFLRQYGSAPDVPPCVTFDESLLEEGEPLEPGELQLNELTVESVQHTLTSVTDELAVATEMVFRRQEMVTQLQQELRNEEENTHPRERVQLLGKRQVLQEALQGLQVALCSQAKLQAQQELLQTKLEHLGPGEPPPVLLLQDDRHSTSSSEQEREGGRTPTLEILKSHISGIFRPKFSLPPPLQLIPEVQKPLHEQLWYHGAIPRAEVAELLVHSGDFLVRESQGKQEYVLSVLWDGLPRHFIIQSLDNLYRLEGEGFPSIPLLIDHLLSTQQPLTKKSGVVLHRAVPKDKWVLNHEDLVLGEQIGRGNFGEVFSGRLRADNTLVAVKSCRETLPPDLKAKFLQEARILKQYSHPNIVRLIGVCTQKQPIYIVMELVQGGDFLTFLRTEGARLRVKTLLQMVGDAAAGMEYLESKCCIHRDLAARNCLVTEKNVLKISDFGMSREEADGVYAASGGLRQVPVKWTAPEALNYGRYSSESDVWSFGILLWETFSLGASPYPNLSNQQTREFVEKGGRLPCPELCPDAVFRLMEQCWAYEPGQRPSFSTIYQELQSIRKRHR
# protocol_details: phosphorylation enrichment, bacterial display (enrichment ratio); higher = better substrate or ligand; peptides without Tyr show the background
Listing: phosphorylation enrichment of selected sequences
When you answer, write just the number.

Reference set, count: 6
EFRFIYMAVQH [PTPN11_Y515_Q510E_YF]    1.35
NKHTTYTMEHI [ACTN1_Y708_N707T]    0.575
SLFNGYVYSGV [NEIL3_Y71]    0.978
VVQGIYGYHHY [UFSP2_Y285]    1.04
AELKLYSGAQT [ZAP70_Y178_R175L]    0.956
ARVDTYCRHNY [HLA-DRB1_Y107_A103R]    1.09

Would you kindly look at the next entry?
Look up phosphorylation enrichment for this sequence: MDDPRYGVCPL [ZNF100_Y6_M8V]
1.27

---

Listing: phosphorylation enrichment of selected sequences
# Test system: c-Abl (mouse)
# protocol_details: phosphorylation enrichment, bacterial display (enrichment ratio); higher = better substrate or ligand; peptides without Tyr show the background
When you answer, write just the number.

IVRSPYEDLED [VHL_Y185_L184P]    0.748
ESAAIYNPVIY [RHO_Y301_K296E]    1.15
FATAGYGSLEA [EPHA10_Y959_A956T]    0.569
ACCLLYHGDVV [TUBA4A_Y319_R320H]    0.69
NLGQQYNSPQE [UMPS_Y432]    0.634
LVTAWYIGFLC [KCNQ2_Y237]    2.12

Look up phosphorylation enrichment for this sequence: MEKEKYVSFIS [JMJD1C_Y596_YF]
0.541

Follow-up entry: EIVHRYVELLD [AP1S3_Y87]
0.744

Follow-up entry: KVALLYKPYFY [POLE_Y100_P99L]
0.866

Follow-up entry: AMCVCYDGVEV [ADAMTSL2_Y594_R593C]
0.816

Follow-up entry: QDGFSYPSRQM [LDLR_Y847_YF]
0.621

Follow-up entry: RVGVDYEGGGC [PLOD1_Y675]
0.239

Follow-up entry: ERRLIYTSDPK [VPS13D_Y864]
0.472

Follow-up entry: TNFRLYLRSLE [MTM1_Y71_YF]
0.798

Follow-up entry: SRGSSYNSIPK [FLNC_Y2625_S2626N]
0.524

Follow-up entry: VKPENYRRLDI [VHL_Y175]
0.345

Follow-up entry: RRIHSHRGHLW [VHL_Y112_Y112H]
0.909

Follow-up entry: FSKTQYNQVPR [CXADR_Y318_S323R_YF]
0.6

Follow-up entry: GRQWNYVASML [KLHL4_Y552_S557L]
0.591

Follow-up entry: ETEMLYGSARR [PRC1_Y464_P468R]
0.638

Follow-up entry: SWSTSYSGFRF [NKAPL_Y91_YF]
0.728

Follow-up entry: NSRYTYKLEVK [USH2A_Y3747]
0.795

Follow-up entry: ETVHRYVELLD [AP1S3_Y87_I83T]
0.613

Follow-up entry: SAEKAYHEQLS [TUBA1A_Y282]
0.511

Follow-up entry: EFRFIYMAVQH [PTPN11_Y515_Q510E_YF]
1.16

Follow-up entry: IVLEKYKLLPE [DHFR_Y157_D153V]
0.676

Follow-up entry: RLGVTYEQALA [MAP2_Y996_G991R]
0.965

Follow-up entry: LLIMEYAKYGS [RET_Y806_V804M]
1.51

Follow-up entry: LIFVSYDDWDY [GRIN2A_Y281_S278F]
1.49
